# PROCEDURE_DETAILS: Selective toxicity- EC50 value of FM3A / EC50 value of Plasmodium falciparum
# Assay type: cell-based
# ASSAY_SETUP: mouse, FM3A cells; read-out: Toxicity ratio
READOUT_KIND: selectivity ratio

1) CCn1c(=O)/c(=C2\Sc3ccccc3N2C)s/c1=C\c1cc[n+](C)c2ccccc12: 87
2) COC(=O)c1ccccc1-c1c2ccc(=N)cc-2oc2cc(N)ccc12 [RHODAMINE123]: 33
3) CCn1c(=O)/c(=C2\Sc3cc(C(F)(F)F)ccc3N2C)s/c1=C\c1cccc[n+]1CC: 64
4) CCn1c(=O)/c(=C2\Sc3ccccc3N2C)s/c1=C\c1cccc(-c2ccccc2)[n+]1C: 34
5) CCn1c(=O)/c(=C2\Sc3ccccc3N2C)s/c1=C\c1ccc2ccccc2[n+]1C: 130
6) CCn1c(=O)/c(=C2\Sc3ccccc3N2C)s/c1=C\c1cccc[n+]1C: 500
7) CCn1c(=O)/c(=C2\Sc3ccccc3N2C)s/c1=C\c1cccc[n+]1CC: 210
8) C=CCn1c(=O)/c(=C2\Sc3ccccc3N2C)s/c1=C\c1cccc[n+]1C: 1000
9) CN1/C(=c2\s/c(=C\c3cccc[n+]3C)n(C)c2=O)Sc2ccccc21: 84
10) CN(C)c1ccc2nc3ccc(N(C)C)cc3[s+]c2c1 [METHYLENE BLUE ANHYDROUS]: 65
11) C=C[C@H]1C[N@@]2CC[C@H]1C[C@H]2[C@H](O)c1ccnc2ccc(OC)cc12 [QUININE]: 910
12) CCN(CC)CCCC(C)Nc1ccnc2cc(Cl)ccc12 (stereo unspecified) [CHLOROQUINE]: 1800
13) CCn1c(=O)/c(=C2\Sc3ccc4ccccc4c3N2C)s/c1=C\c1cccc[n+]1CCO: 120

###

# PROCEDURE_DETAILS: Selective toxicity- EC50 value of FM3A / EC50 value of Plasmodium falciparum
# Assay type: cell-based
# ASSAY_SETUP: mouse, FM3A cells; read-out: Toxicity ratio
Entries annotated with measured selectivity ratio
READOUT_KIND: selectivity ratio

1. CC[n+]1ccccc1/C=c1\s/c(=C2/Sc3ccccc3N2C)c(=O)n1CCCCC(=O)O: > 11
2. CCn1c(=O)/c(=C2\Sc3ccccc3N2C)s/c1=C\c1cccc[n+]1CCO: > 81
3. CCn1c(=O)/c(=C2\Sc3ccccc3N2C)s/c1=C\c1cccc[n+]1CCCCC(=O)O: > 26

The reported numbers originate from ChEMBL document CHEMBL1135578.
